# target-or-system: CDK6 (Homo sapiens, UniProt Q00534)
# Construct: endogenous in cells
# Sequence (Q00534 whole entry): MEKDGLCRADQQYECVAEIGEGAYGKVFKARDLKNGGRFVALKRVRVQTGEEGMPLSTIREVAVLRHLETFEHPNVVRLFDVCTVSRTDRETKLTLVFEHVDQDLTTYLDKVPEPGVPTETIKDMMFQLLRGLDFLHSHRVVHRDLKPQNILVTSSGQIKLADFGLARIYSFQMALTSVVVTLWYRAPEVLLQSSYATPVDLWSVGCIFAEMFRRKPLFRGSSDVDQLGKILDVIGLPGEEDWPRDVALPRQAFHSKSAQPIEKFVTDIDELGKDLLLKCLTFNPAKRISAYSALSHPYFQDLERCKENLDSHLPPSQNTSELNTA
# assay-method-text: CDK6 degradation (DC50, Dmax)
# Type: cell-based
parameter: Dmax

Examples with their reported Dmax follow.
1. Cc1nc2c(F)cc(-c3nc(Nc4ccc(CC5CCN(CC6CN(c7ccc(C(=O)NC8CCC(=O)NC8=O)cc7)C6)CC5)cn4)ncc3F)cc2n1C(C)C (centres unmarked)    > 80%
2. CC(=O)c1c(C)c2cnc(Nc3ccc(N4CCN(C(=O)C5CN(c6ccc7c(c6)CN(C6CCC(=O)NC6=O)C7=O)C5)CC4)cn3)nc2n(C2CCCC2)c1=O (centres unmarked)    > 80%
3. CC(=O)c1c(C)c2cnc(Nc3ccc(N4CCN(CCC5CCN(c6ccc7c(c6)CN(C6CCC(=O)NC6=O)C7=O)CC5)CC4)cn3)nc2n(C2CCCC2)c1=O (centres unmarked)    > 60%
4. Cc1nc2c(F)cc(-c3nc(Nc4ccc(CN5CCN(CCNc6cccc7c6C(=O)N(C6CCC(=O)NC6=O)C7=O)CC5)cn4)ncc3F)cc2n1C(C)C (centres unmarked)    > 80%

Prompt: Dear colleague, I am looking for the recorded Dmax of the following molecule: Cc1nc2c(F)cc(-c3nc(Nc4ccc(CN5CCN(CCCNc6ccc(N7CCC(=O)NC7=O)cc6)CC5)cn4)ncc3F)cc2n1C(C)C
Completion: > 80%
